Recorded values, source the RNAGym collection of RNA variant scans (doi:10.1038/s41586-018-0170-7).

Field: yeast fitness (ln). Provide a value for each of the variants that follow.
B1: tRNA (parent)
chain: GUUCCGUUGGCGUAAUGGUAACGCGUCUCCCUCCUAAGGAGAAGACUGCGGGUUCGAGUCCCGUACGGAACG

Variants of: B1
experiment.description: yeast fitness, log relative to wild type (ln ratio); higher = fitter; tRNA-Arg(CCU), competitive growth, 37 C, 1 M NaCl
API doc: respond with a numeric literal and nothing else, no unit.

query: Please report the measured yeast fitness (ln) for G1A G6U C46U A69G A70U C71U
result: -0.321

query: Input G1A U2C C27U A69G A70U , output reported yeast fitness (ln).
result: -0.0698

query: Output yeast fitness (ln) of U2G G6U C27U A43C C46U C66A A70U C71U
result: -0.629

query: Read off the recorded yeast fitness (ln) for G1A U2C G6U C27U C46U A69G A70U
result: -0.219

query: Please indicate yeast fitness (ln) recorded for U2C G6U A43C C46U A70G C71U
result: -0.278

query: Give recorded yeast fitness (ln). U2C G6U A43C C46U
result: -0.0413

query: Read off the recorded yeast fitness (ln) for U2C G6A C27U A43C C66U A70U
result: -0.091

query: Name the recorded yeast fitness (ln) of the variant listed here: G1A G6U C46U C66U A69G A70G C71U
result: -0.216

query: For U2C G6U C27U A43C C46U C66A A69G A70G , write its yeast fitness (ln).
result: -0.051

query: Assign yeast fitness (ln) to the following record: U2C G6U C27U A43C C66A A70U
result: -0.167

query: Entry U2G C27U A43C C46U C66U A70G needs its yeast fitness (ln) filled in; supply it.
result: -0.161

query: Please give the documented yeast fitness (ln) of G1A U2C C27U A43C C46U A70G
result: -0.0342

query: Give reported yeast fitness (ln) value for U2G C27U A43C C46U C66U A70G C71U
result: -0.231

query: Return the recorded yeast fitness (ln) value; entry: G1A U2C G6A C27U A43C C46U C66U A70G
result: -0.155

query: Look up yeast fitness (ln) of G1A G6A A43C C66A A70U and report it.
result: -0.201

query: Quote yeast fitness (ln) reported for U2G A43C C66U A70G C71U please.
result: -0.22

query: Answer with the recorded yeast fitness (ln) of U2C G6U C27U C46U C66U A70G C71U only.
result: -0.177

query: Tell us which yeast fitness (ln) value is on record for U2C G6U C66A
result: -0.00733

query: Report yeast fitness (ln), nothing else, for this variant: G1A U2C C27U A43C A69G A70G C71U
result: -0.0597

query: Identify measured yeast fitness (ln) associated with G6U C71U
result: -0.261

query: Identify measured yeast fitness (ln) associated with G6A C66U A69G A70U
result: -0.335

query: Identify the reported yeast fitness (ln) for the following entry. G1A G6A A43C C66U C71U
result: -0.144

query: Look up yeast fitness (ln) of G1A G6A C27U C66U A70G C71U and report it.
result: -0.566

query: Could you please provide reported yeast fitness (ln) for A43C C46U A69G C71U ? Thanks!
result: -0.0511

query: Provide yeast fitness (ln) value for the following variant: A69G A70U
result: -0.0431

query: // fetch yeast fitness (ln) given entry G1A G6A C66U A69G A70G C71U
result: -0.145

query: Kindly indicate its recorded yeast fitness (ln). Item: U2G G6U C27U A43C C66A A69G A70G C71U
result: -0.371

query: Give the value of yeast fitness (ln) reported for the following: U2G G6U C46U A70G C71U
result: -0.165

query: State, in one line, measured yeast fitness (ln) of U2C G6U C46U C66A C71U
result: -0.211

query: Identify measured yeast fitness (ln) associated with G1A U2C G6A C27U A43C C46U
result: -0.0401

query: Return reported yeast fitness (ln). Input variant: U2G C66U A69G
result: -0.195

query: Return value of yeast fitness (ln) for input G1A C46U C66A , no commentary.
result: 0.0129

query: Dear colleague, please send me the reported yeast fitness (ln) for U2G G6U A70G C71U when you can.
result: -0.173

query: For the variant G1A U2C G6A A43C C66U A70U , report yeast fitness (ln).
result: -0.083

query: Identify the reported yeast fitness (ln) for the following entry. U2C G6A C27U A43C C46U C66U A69G A70U C71U
result: -0.32

query: Tell us which yeast fitness (ln) value is on record for U2G G6A A43C C46U A70G
result: -0.148

query: Report yeast fitness (ln) for G1A U2G G6A C27U C46U A69G A70U C71U
result: -0.379

query: Report yeast fitness (ln) for U2C G6U C27U A43C A70G
result: -0.18

query: Give yeast fitness (ln) for the following variant: U2C C27U C66U A70G C71U
result: -0.172

query: Report measured yeast fitness (ln); entry is G1A G6U A43C C46U A70U C71U
result: -0.297

query: Output measured yeast fitness (ln) for this item: U2C G6A A43C C66U A70U C71U
result: -0.305

query: Supply reported yeast fitness (ln) belonging to this variant: G1A A43C C46U C66U A70U C71U
result: -0.323

query: For the variant G6U C27U C46U A69G A70U C71U , report yeast fitness (ln).
result: -0.457

query: Look up and report measured yeast fitness (ln) for this entry: U2G G6A C46U C66A A69G A70U C71U
result: -0.382

query: Provide one value: measured yeast fitness (ln) of U2G G6A A70U
result: -0.0249

query: Supply recorded yeast fitness (ln) for G1A U2C G6U C27U A43C A70G C71U here.
result: -0.22

query: Please give measured yeast fitness (ln) of the following entry: G6U C46U C66A A69G A70G C71U
result: -0.414

query: Consider the variant G1A U2G G6U C27U A43C C46U A70U C71U . State its measured yeast fitness (ln).
result: -0.339

query: Return the recorded yeast fitness (ln) value; entry: U2G G6A C27U A69G A70G C71U
result: -0.245

query: Give reported yeast fitness (ln) value for U2G G6A C27U C46U C66U A69G A70U C71U
result: -0.394

query: Output measured yeast fitness (ln) for this item: G1A C27U A43C C46U C66U A69G A70U C71U
result: -0.448

query: Output yeast fitness (ln) of U2G A43C A69G
result: 0.00792

query: Item U2G G6U A43C C66U A69G A70G C71U : provide yeast fitness (ln)
result: -0.411

query: Please list yeast fitness (ln) recorded for the variant U2C G6A C27U A43C C46U A69G A70G
result: -0.0933

query: Identify measured yeast fitness (ln) associated with U2G G6U C46U C66A A70U
result: 0.00118

query: Hello, please tell me recorded yeast fitness (ln) for this one: U2G A43C C66U A69G A70U
result: -0.307

query: Name the recorded yeast fitness (ln) of the variant listed here: G1A G6U C46U C66A A70U
result: -0.0534

query: Supply yeast fitness (ln) value. Item: U2G G6U C27U A43C C46U C66U A70U C71U
result: -0.378

query: Provide one value: measured yeast fitness (ln) of G1A G6U C27U A43C A69G A70U
result: -0.481

query: Provide only the value of recorded yeast fitness (ln) for G1A C27U A43C C46U C66A A69G A70G C71U
result: -0.305

query: Give the measured yeast fitness (ln) for U2G G6U C27U C66U A69G A70G C71U
result: -0.273

query: Let me know recorded yeast fitness (ln) for U2C G6A C66U A70U C71U , thanks.
result: -0.172

query: Using known records, supply yeast fitness (ln) for G6U C46U A70U C71U
result: -0.189

query: Tell me measured yeast fitness (ln) for C66A A70U C71U please.
result: -0.0544

query: Tell me yeast fitness (ln) reported for G1A U2G G6U A43C C46U A69G A70U
result: -0.354

query: For U2G G6U C27U A43C A70U C71U , write its yeast fitness (ln).
result: -0.324

query: Item G1A U2G G6U C27U A43C C46U C66U A69G A70G C71U : provide yeast fitness (ln)
result: -0.475

query: Supply measured yeast fitness (ln) of G1A G6U C27U A43C C46U C66U A70G in your reply.
result: -0.387

query: Name the recorded yeast fitness (ln) of the item U2G G6U C27U A69G C71U in your answer.
result: -0.286

query: Give the measured yeast fitness (ln) for G1A G6U C27U A43C A69G C71U
result: -0.557

query: Look up yeast fitness (ln) of G1A A43C C66U A70U C71U and report it.
result: -0.25

query: Return yeast fitness (ln) for the following variant: G1A U2C G6U C27U A70G
result: -0.186

query: Let me know recorded yeast fitness (ln) for G1A G6U C46U A70U C71U , thanks.
result: -0.185

query: Please give measured yeast fitness (ln) of the following entry: G6U A43C C46U
result: -0.193

query: Let me know recorded yeast fitness (ln) for U2G G6U C46U C66A A69G A70G , thanks.
result: -0.13

query: Output measured yeast fitness (ln) for this item: G6A C66A A70U C71U
result: -0.241

query: Kindly indicate its recorded yeast fitness (ln). Item: U2C G6A C27U C66U A69G A70U
result: -0.138

query: Please list yeast fitness (ln) recorded for the variant U2C G6A A43C A70U
result: -0.0469

query: Return reported yeast fitness (ln). Input variant: `A70G`
result: -0.00424

query: Tell us which yeast fitness (ln) value is on record for U2G G6A C27U A43C A69G C71U
result: -0.391

query: Give the measured yeast fitness (ln) for G1A U2G G6U C71U
result: -0.196

query: Note yeast fitness (ln) for the variant shown: U2C G6A C66U A70G C71U
result: -0.0109

query: Supply measured yeast fitness (ln) of U2G G6A C27U A69G A70G in your reply.
result: -0.193

query: Supply recorded yeast fitness (ln) for U2G A43C C46U C66A A69G A70G here.
result: -0.186

query: Let me know recorded yeast fitness (ln) for G1A U2G G6A C27U C66U A69G A70G , thanks.
result: -0.431

query: Kindly indicate its recorded yeast fitness (ln). Item: G1A G6U C46U C71U
result: -0.183

query: Find the measured yeast fitness (ln) of G1A U2C G6U C27U A43C C46U A70U and report it.
result: -0.151

query: Look up yeast fitness (ln) of G1A U2G A69G A70G C71U and report it.
result: -0.438

query: Annotate the variant G1A U2G G6A A43C C46U C66U A70U C71U with its measured yeast fitness (ln).
result: -0.086

query: Look up and report measured yeast fitness (ln) for this entry: U2C G6A C27U C71U
result: -0.212

query: Give me measured yeast fitness (ln), please, for this variant: G1A U2G G6U C46U C66U C71U
result: -0.257
